- experiment-notes: Caco-2 permeability assay (CacoReady kit)
- Assay type: in vitro ADME
- cond: human, Caco-2, Caco-2 barrier, CacoReady kit; above 1×10^−6 cm/s classified as permeable
Below, each entry is listed alongside its reported Papp.

// solved cases for Papp follow
[[record]]
molecule = "CNC(=O)C(=O)CC[C@H](NC(=O)c1sc(C)nc1C)C(=O)Nc1cccn(CC(=O)NC2C3CC4CC(C3)CC2C4)c1=O (stereo partly drawn)"
reported_value = "1 to 10 ×10⁻⁶ cm/s"

[[record]]
molecule = "CC(C)(C)NC(=O)C(=O)CC[C@H](NC(=O)[C@@H]1CN2CCN1CC2)C(=O)Nc1cccn(CC(=O)NC2C3CC4CC(C3)CC2C4)c1=O (stereo partly drawn)"
reported_value = "< 1 ×10⁻⁶ cm/s"

[[record]]
molecule = "CNC(=O)C(=O)CC[C@H](NC(=O)c1nc2ccccc2[nH]1)C(=O)Nc1cccn(CC(=O)NC2C3CC4CC(C3)CC2C4)c1=O (stereo partly drawn)"
reported_value = "< 1 ×10⁻⁶ cm/s"


Lab book: Papp of `CNC(=O)C(=O)CC[C@H](NC(=O)c1oc2ccccc2c1C)C(=O)Nc1cccn(CC(=O)N[C@H]2C[C@H]3CC[C@@]2(C)C3(C)C)c1=O` noted as 1 to 10 ×10⁻⁶ cm/s

Lab note: measured Papp of `CNC(=O)C(=O)CC[C@H](NC(=O)c1oc2ccccc2c1C)C(=O)Nc1cccn(CC(=O)N[C@@H]2C[C@H]3CC[C@]2(C)C3(C)C)c1=O` was 1 to 10 ×10⁻⁶ cm/s

Looking up CNC(=O)C(=O)CC[C@H](NC(=O)c1nc[nH]n1)C(=O)Nc1cccn(CC(=O)NC2C3CC4CC(C3)CC2C4)c1=O (stereo partly drawn) , I see its Papp listed as < 1 ×10⁻⁶ cm/s

---

- experiment-notes: logD by shake flask method (octanol / PBS pH 7.4, HPLC)
- Format: physicochemical
- cond: octanol / PBS pH 7.4, shake flask
List of logD values.

[[record]]
molecule = "O=C(Cn1cccc(NC(=O)[C@H](CCC(=O)C(=O)NC2CCCCC2)NC(=O)c2cc3ccccc3nn2)c1=O)NC12CC(C1)C2"
reported_value = "1 to 3"


Continue with the molecule presented below.
Measured logD, CNC(=O)C(=O)CC[C@H](NC(=O)c1nc(C2(C)CC2)no1)C(=O)Nc1cccn(CC(=O)NC2C3CC4CC2CC(C(N)=O)(C4)C3)c1=O (some centres unmarked) : < 1

---

Below is a list of entries, each paired with its recorded pIC50 value.
- tested-system: recombinant human transglutaminase 2 (Homo sapiens)
- Construct: purchased Zedira T022
- Sequence (P21980 whole entry): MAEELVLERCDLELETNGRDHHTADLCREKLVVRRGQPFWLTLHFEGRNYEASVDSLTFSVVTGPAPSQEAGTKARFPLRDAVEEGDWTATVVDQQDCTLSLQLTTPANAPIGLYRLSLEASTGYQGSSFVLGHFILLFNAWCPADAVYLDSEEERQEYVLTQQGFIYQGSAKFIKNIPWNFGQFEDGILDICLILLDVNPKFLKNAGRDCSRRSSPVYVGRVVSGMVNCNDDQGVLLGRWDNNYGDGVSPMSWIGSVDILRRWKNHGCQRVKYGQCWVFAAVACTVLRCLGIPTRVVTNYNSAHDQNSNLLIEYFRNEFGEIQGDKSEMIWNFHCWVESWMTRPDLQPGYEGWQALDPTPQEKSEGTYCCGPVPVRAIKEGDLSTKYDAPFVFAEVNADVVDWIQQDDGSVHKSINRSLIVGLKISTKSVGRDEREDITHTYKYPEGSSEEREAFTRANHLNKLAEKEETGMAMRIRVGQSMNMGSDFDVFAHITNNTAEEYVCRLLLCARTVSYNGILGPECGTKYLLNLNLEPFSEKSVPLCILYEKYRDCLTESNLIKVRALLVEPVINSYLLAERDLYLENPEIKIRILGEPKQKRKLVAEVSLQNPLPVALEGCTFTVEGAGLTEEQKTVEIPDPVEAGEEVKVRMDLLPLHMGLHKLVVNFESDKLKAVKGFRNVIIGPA
- experiment-notes: Transglutaminase assay (DCC-assay): incorporation of dansylcadaverine into dimethylcasein
- Assay type: biochemical
- cond: recombinant human TG2 10 nM; dansylcadaverine incorporation into dimethylcasein; read-out: IC50 TG2
pIC50: −log10 of the molar value.

Previously resolved entries follow.
[[record]]
molecule = "CNC(=O)C(=O)CC[C@H](NC(=O)c1snnc1CO)C(=O)Nc1cccn(CC(=O)NC2C3CC4CC(C3)CC2C4)c1=O (stereo partly drawn)"
tested_system = "recombinant human transglutaminase 2 (Homo sapiens)"
reported_value = "6.40 to 7.40"

[[record]]
molecule = "CNC(=O)C(=O)CC[C@H](NC(=O)c1cc2ccccc2o1)C(=O)Nc1cccn(CC(=O)NC(C)C23CC4CC(CC(C4)C2)C3)c1=O (stereo partly drawn)"
tested_system = "recombinant human transglutaminase 2 (Homo sapiens)"
reported_value = "6.40 to 7.40"

[[record]]
molecule = "CNC(=O)C(=O)CC[C@H](NC(=O)c1[nH]c2ccccc2c1C)C(=O)Nc1cccn(CC(=O)NC2C3CC4CC(C3)CC2C4)c1=O (stereo partly drawn)"
tested_system = "recombinant human transglutaminase 2 (Homo sapiens)"
reported_value = "> 7.40"

[[record]]
molecule = "CNC(=O)C(=O)CC[C@H](NC(=O)c1cc(Cl)sc1Cl)C(=O)Nc1cccn(CC(=O)N[C@@H]2C[C@@H]3CC[C@H]2C3)c1=O"
tested_system = "recombinant human transglutaminase 2 (Homo sapiens)"
reported_value = "> 7.40"


The reported pIC50 of the molecule CNC(=O)C(=O)CC[C@H](NC(=O)c1ccnnc1)C(=O)Nc1cccn(CC(=O)NC2C3CC4CC(C3)CC2C4)c1=O (stereo partly drawn) was 6.40 to 7.40

response.value for `CNC(=O)C(=O)CC[C@H](NC(=O)c1snnc1C)C(=O)Nc1cccn(CC(=O)N[C@H]2C[C@H]3CC[C@]2(C)C3(C)C)c1=O` (field: pIC50) = 6.40 to 7.40
